Data provenance: PubChem BioAssay

procedure text: thallium flux activation in parental CHO cells, counter-screen for KCNQ1 potentiator project (AID 493006);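 as to activation: fluorescence ratio of max minus min over baseline after K+ and Tl+ depolarization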
condition label: parental CHO-K1 cells, FluxOR thallium flux, at 10 µM; stronger effect = higher value
Calls of active or inactive are those of the source.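 The calls were made as follows: active = duplicate-averaged activation above buffer control mean plus 5 SD of those controls; inactive = the rest.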
measured parameter: activation

INSERT INTO measurements (compound, result) VALUES
  ('COc1cc(-n2c(=S)[nH]c3ccc(C)cc3c2=O)c(Cl)cc1Cl', '182% (active)'),
  ('CNc1ccc2oc(C[C@H]3O[C@@]4(CC[C@H]3C)O[C@H]([C@H](C)C(=O)c3ccc[nH]3)[C@H](C)C[C@H]4C)nc2c1C(=O)O', '144% (active)'),
  ('COc1ccc2c(c1)/C(=C/c1cnc[nH]1)C(=O)N2', 'inactive'),
  ('COc1ccc(C2NCc3ccc4c(c3-n3cccc32)OCO4)cc1O (configuration not stated)', 'inactive'),
  ('Cc1c(Cl)cccc1NC(=S)N1CC2CC(C1)c1cccc(=O)n1C2 (configuration not stated)', 'inactive'),
  ('Cc1nc2ccccc2c(=O)n1/N=C/c1cc(Br)cc(Br)c1O', 'inactive'),
  ('O=C(CCCN1CCC2(CC1)C(=O)NCN2c1ccccc1)c1ccc(F)cc1', '336% (active)'),
  ('O=[N+]([O-])c1ccc(N2CCOCC2)c2ccncc12', 'inactive'),
  ('c1ccc2c(c1)Sc1ccccc1N2CC1CN2CCC1CC2 (configuration not stated)', 'inactive'),
  ('O=C(c1ccc(-c2ccccc2)cc1)C1CCCN(Cc2ccn[nH]2)C1 (configuration not stated)', 'inactive'),
  ('COc1ccc(C(=O)OC2CC[C@@]3(C)C4CCC5[C@]6(O)CC(O)[C@@]7(O)C(CN8CC(C)CCC8[C@@]7(C)O)[C@]6(O)C[C@@]53O[C@]24O)cc1OC (some centres not stated)', 'inactive'),
  ('CCOc1cc(C=C2C(=O)NC(=O)NC2=O)ccc1OS(=O)(=O)c1ccccc1', 'inactive'),
  ('Cc1ccccc1CC(=O)N(CCN(C)C)CC1CCCN(Cc2ccccc2F)C1 (configuration not stated)', 'inactive'),
  ('COc1ccccc1N(CC(=O)NC1CCCC1)C(=O)c1cnn(C(C)C)c1', 'inactive'),
  ('CN1CCC(c2c[nH]c3ccccc23)C1 (configuration not stated)', 'inactive'),
  ('O=c1c(C=NCCN2CCNCC2)c(O)n(C2CCCCC2)c(=O)n1C1CCCCC1', 'inactive'),
  ('O=C1NC(=O)N(Cc2ccc(F)cc2)C(=O)/C1=C/c1cccs1', 'inactive');

====

test system: Short transient receptor potential channel 4 (Mus musculus) (UniProt Q9QUQ5)
Sequence (Q9QUQ5 whole entry, looked up): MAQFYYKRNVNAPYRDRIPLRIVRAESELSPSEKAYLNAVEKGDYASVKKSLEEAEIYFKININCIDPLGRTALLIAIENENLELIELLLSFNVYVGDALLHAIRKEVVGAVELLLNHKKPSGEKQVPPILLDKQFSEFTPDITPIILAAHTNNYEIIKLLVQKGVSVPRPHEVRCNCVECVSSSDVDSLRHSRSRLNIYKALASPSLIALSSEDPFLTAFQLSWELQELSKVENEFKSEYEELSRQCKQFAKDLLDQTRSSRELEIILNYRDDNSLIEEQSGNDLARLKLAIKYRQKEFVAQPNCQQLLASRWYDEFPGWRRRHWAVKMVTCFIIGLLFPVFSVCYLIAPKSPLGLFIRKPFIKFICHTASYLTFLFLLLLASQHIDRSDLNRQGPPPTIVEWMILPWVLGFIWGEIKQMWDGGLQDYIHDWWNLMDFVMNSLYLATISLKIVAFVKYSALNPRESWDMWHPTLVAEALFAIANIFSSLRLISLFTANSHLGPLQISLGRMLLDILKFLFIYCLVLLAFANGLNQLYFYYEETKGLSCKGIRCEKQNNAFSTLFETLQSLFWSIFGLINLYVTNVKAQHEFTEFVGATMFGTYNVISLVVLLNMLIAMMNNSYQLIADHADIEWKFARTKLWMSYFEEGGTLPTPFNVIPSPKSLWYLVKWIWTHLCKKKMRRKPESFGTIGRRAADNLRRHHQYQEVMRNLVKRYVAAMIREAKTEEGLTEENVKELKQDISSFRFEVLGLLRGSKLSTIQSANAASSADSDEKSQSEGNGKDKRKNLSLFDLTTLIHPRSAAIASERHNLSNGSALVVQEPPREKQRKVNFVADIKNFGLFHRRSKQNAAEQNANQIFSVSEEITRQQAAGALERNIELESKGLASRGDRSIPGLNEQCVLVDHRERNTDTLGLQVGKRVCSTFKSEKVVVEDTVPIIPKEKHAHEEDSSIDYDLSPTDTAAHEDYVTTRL
procedure text: inhibitors of mouse TRPC4 channel, confirmation, cell-based, Fluo4, HEK293 TRPC4beta/mu-opioid (AID 2636)
condition label: DAMGO, Fluo4 calcium flux, at 10 µM
Activity calls are given as the source filed them.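 How the source made its calls: active means calcium signal cut by more than 3 SD below the full-agonist control yet still positive, in both repeats and the earlier primary screen; inactive means the rest.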
Outcome codes: true (1) (active), false (0) (inactive)

INSERT INTO results (molecule, cat) VALUES
  ('COC(=O)C1=C(c2cc3ccccc3s2)C[C@@H]2CC[C@H]1N2C(=O)NCCO', 'false (0)'),
  ('Nc1ccccc1-[n+]1c(-c2ccccc2)cc(-c2ccccc2)cc1-c1ccccc1', 'false (0)'),
  ('Cc1ccccc1C(O)(Cc1ccccc1)C1CN2CCC1CC2 (stereo unspecified)', 'false (0)'),
  ('CCC1=Nc2cc(C(=O)N3CCC4(CC3)OCCO4)ccc2Sc2ccc(Br)cc21', 'false (0)'),
  ('COC(=O)C(Cc1ccc(N(CCCl)CCCl)cc1)N=Cc1ccccc1O (stereo unspecified)', 'false (0)'),
  ('CN(C)C(CNC(=O)Cc1ccc(Br)cc1)c1ccccc1 (stereo unspecified)', 'false (0)'),
  ('CC(=O)OC1(c2ccccc2)CCN(C2CCCCC2)CC1C (stereo unspecified)', 'true (1)'),
  ('CCc1n[nH]c(CCN)n1', 'false (0)'),
  ('CCC(=O)OC1(c2cccc(C)c2)CC(C)N(C)CC1C (stereo unspecified)', 'false (0)'),
  ('CC(N)Cc1c[nH]c2cc3c(cc12)OCCO3 (stereo unspecified)', 'false (0)'),
  ('CCOC(=O)C1(CCc2ccccc2)CCN(Cc2cccc3c2OCO3)CC1', 'true (1)');

====

// values below are reported inhibition
procedure text: calcium flux inhibitors in TRPC4/5HT1a cells, confirmation, counter-screen for TRPC4 inhibitor project, cell-based, second counter screen, HEK293 TRPC4/5HT1a, Fluo-4 (AID 434978)
condition label: Fluo-4 calcium flux, at 10 µM; stronger effect = higher value, serotonin added to trigger calcium flux unless noted
measured parameter: inhibition (%)

INSERT INTO results (molecule, unit_tag, numeric_result) VALUES
  ('COc1ccc(O)c(CN2CCCC(C(=O)c3sccc3C)C2)c1 (configuration not stated)', '%', 29.4),
  ('COc1cccc(O)c1CN1CCCC(C(=O)c2sccc2C)C1 (configuration not stated)', '%', 29.8),
  ('O=C(CN1CCCC1)Nc1ccc(Cl)cc1C(=O)c1ccccc1', '%', 21.8),
  ('O=C(c1cccc(C(F)(F)F)c1)C1CCCN(Cc2ccccc2O)C1 (configuration not stated)', '%', 24.6),
  ('COc1ccc(CN2CCCC(C(=O)c3sccc3C)C2)cc1O (configuration not stated)', '%', 21.3),
  ('Cc1cccc(N2CCc3c2nc2ccccc2c3N)c1', '%', 24.6),
  ('Cc1ccsc1C(=O)C1CCCN(Cc2ccccc2O)C1 (configuration not stated)', '%', 44.9),
  ('CCN(CC)c1ccc([N+](=O)[O-])c2cccnc12', '%', 28),
  ('CCc1nccc2c1[nH]c1ccccc12', '%', 9.99),
  ('COc1ccc(Br)cc1CN1CCN(C(=O)Cc2ccccc2)CC1', '%', 20.6),
  ('O=C(Cc1ccccc1)N1CCN(Cc2cccc(Br)c2)CC1', '%', 37.8),
  ('CC(Cc1ccccc1)NCC(=O)Nc1cc(N(C)C)nc2ccccc12 (configuration not stated)', '%', 46);

====

Tested on: TRPC4 beta (transient receptor potential cation channel C4), mouse
procedure text: positive allosteric modulators of mouse TRPC4, confirmation, cell-based, Fluo-4, HEK293 TRPC4beta/mu-opioid (AID 2555)
condition label: DAMGO EC20, Fluo-4 calcium flux, at 10 µM
Active and inactive are the calls of the source.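 Rule for the calls: active = primary screen hit whose calcium fluorescence ratio, in both repeats, exceeds the weak agonist control mean by 3 SD; inactive = the rest.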
Outcome codes: 1.0 = active, 0.0 = inactive

INSERT INTO measurements (compound, cat) VALUES
  ('Cc1ccc(C[n+]2c(-c3ccc(C)cc3)cc(-c3ccc(C)cc3)cc2-c2ccc(C)cc2)cc1', 0.0),
  ('Cc1cc(OC(C)C(=O)NCc2ccncc2)c2c3c(c(=O)oc2c1)CCCC3 (stereo unspecified)', 0.0),
  ('C[C@H]1OC[C@@H](C[N+](C)(C)C)O1', 0.0),
  ('C#CCN1C(=O)C2(C(C#N)=C(N)OC(C)=C2C(=O)OCc2ccccc2)c2ccccc21 (stereo unspecified)', 1.0),
  ('CCNc1cc(N2CCNCC2)ccc1[N+](=O)[O-]', 1.0),
  ('COc1ccc(CNCCc2ccc3c(c2)OCO3)cc1Br', 0.0),
  ('CCOC(=O)C1(CCc2ccccc2)CCN(Cc2cccc3c2OCO3)CC1', 0.0),
  ('CCN1CC2C3CCC(C)(O3)C2C1 (stereo unspecified)', 0.0),
  ('COc1ccccc1CC(=O)N1CCN(CCc2ccccc2)CC1', 0.0),
  ('Cc1ccc(-n2cc(CNC(C)Cc3cnccn3)c(-c3cccc(C)c3)n2)cc1 (stereo unspecified)', 0.0),
  ('c1ccc2sc(N3CCNCC3)nc2c1', 0.0);

====

test system: Short transient receptor potential channel 4 (Mus musculus)
procedure text: calcium flux activators in TRPC4/5HT1a cells, counter-screen for TRPC4 activator project, cell-based, second counter screen, HEK293 TRPC4/5HT1a, Fluo-4 (AID 434977)
condition label: Fluo-4 calcium flux, at 10 µM
The source made the active and inactive calls.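 The calls were made as follows: active = calcium signal rise above buffer-control mean plus 5 SD in both duplicates, and also a hit in the primary screen; inactive = the rest.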
Outcome codes: active, inactive

INSERT INTO results (compound, test_system, cat) VALUES
  ('CCNCCNc1ccc([N+](=O)[O-])c2cccnc12', 'Short transient receptor potential channel 4 (Mus musculus)', 'inactive'),
  ('Cc1ccc(C[n+]2c(-c3ccc(C)cc3)cc(-c3ccc(C)cc3)cc2-c2ccc(C)cc2)cc1', 'Short transient receptor potential channel 4 (Mus musculus)', 'active'),
  ('COc1ccc(O)c(CN2CCCC(C(=O)c3sccc3C)C2)c1 (stereo not given)', 'Short transient receptor potential channel 4 (Mus musculus)', 'inactive'),
  ('O=C(CCCN1CCC2(CC1)C(=O)NCN2c1ccccc1)c1ccc(F)cc1', 'Short transient receptor potential channel 4 (Mus musculus)', 'active'),
  ('Cn1c(N2CCNCC2)nc2ccccc21', 'Short transient receptor potential channel 4 (Mus musculus)', 'active'),
  ('CC[C@@H](CO)NC(=O)[C@@H]1C=C2c3cccc4c3c(cn4C)C[C@H]2N(C)C1', 'Short transient receptor potential channel 4 (Mus musculus)', 'active'),
  ('O=[N+]([O-])c1ccc(N2CCNCC2)cc1N1CCCCCC1', 'Short transient receptor potential channel 4 (Mus musculus)', 'inactive'),
  ('COC(=O)C1=CCCN(C)C1', 'Short transient receptor potential channel 4 (Mus musculus)', 'active'),
  ('c1ccc2nc(OCCN3CC3)ccc2c1', 'Short transient receptor potential channel 4 (Mus musculus)', 'inactive'),
  ('CN(C)C1(CNC(=O)Nc2ccc(Cl)c(Cl)c2)CCCCC1', 'Short transient receptor potential channel 4 (Mus musculus)', 'active'),
  ('CCOc1cc(CNCCc2c[nH]c3ccccc23)cc(Cl)c1OC', 'Short transient receptor potential channel 4 (Mus musculus)', 'active'),
  ('Cc1c(P(=S)(c2ccccc2)c2ccccc2)[n+]2ccccc2n1C', 'Short transient receptor potential channel 4 (Mus musculus)', 'inactive'),
  ('COc1cccc(O)c1CN1CCCC(C(=O)c2sccc2C)C1 (stereo not given)', 'Short transient receptor potential channel 4 (Mus musculus)', 'inactive'),
  ('CCN1CCN(Cc2cc(Br)cc(Br)c2O)CC1', 'Short transient receptor potential channel 4 (Mus musculus)', 'active'),
  ('Cc1ccc(-c2cc(-c3ccccc3)cc(-c3ccccc3)[n+]2-c2ccccc2)cc1', 'Short transient receptor potential channel 4 (Mus musculus)', 'inactive'),
  ('CCOC(=O)C1(CCc2ccccc2)CCN(Cc2ccc(NC(C)=O)cc2)CC1', 'Short transient receptor potential channel 4 (Mus musculus)', 'inactive'),
  ('O=[N+]([O-])c1ccc(N2CCNCC2)cc1NC1CC1', 'Short transient receptor potential channel 4 (Mus musculus)', 'active'),
  ('CCOC(=O)C1(c2ccccc2)CCN(CCC(=O)Nc2ccccc2OC)CC1', 'Short transient receptor potential channel 4 (Mus musculus)', 'inactive'),
  ('CNCCc1nc(N)n[nH]1', 'Short transient receptor potential channel 4 (Mus musculus)', 'active'),
  ('O=C(Cc1ccccc1)N1CCN(Cc2cccc(Br)c2)CC1', 'Short transient receptor potential channel 4 (Mus musculus)', 'inactive'),
  ('Clc1ccc(OCC#CCN2CCCC2)cc1', 'Short transient receptor potential channel 4 (Mus musculus)', 'inactive'),
  ('Cc1cccc(N=Cc2c(O)n(-c3ccccc3C)c(=O)[nH]c2=O)c1', 'Short transient receptor potential channel 4 (Mus musculus)', 'inactive'),
  ('Cc1ccc(C)c(NC(=S)NCCc2cnc[nH]2)c1', 'Short transient receptor potential channel 4 (Mus musculus)', 'active'),
  ('CC(=O)OC1(c2ccccc2)CCN(C2CCCCC2)CC1C (stereo not given)', 'Short transient receptor potential channel 4 (Mus musculus)', 'inactive'),
  ('CN1CCN(Cc2cc(=O)n3ccsc3n2)CC1', 'Short transient receptor potential channel 4 (Mus musculus)', 'inactive');
